Some binders, each annotated with its measured activity.
SYSTEM: T1, Retinoic acid receptor alpha (RARα), in CV-1 cells (Homo sapiens, UniProt P10276 P10276:1-462)
T1 sequence: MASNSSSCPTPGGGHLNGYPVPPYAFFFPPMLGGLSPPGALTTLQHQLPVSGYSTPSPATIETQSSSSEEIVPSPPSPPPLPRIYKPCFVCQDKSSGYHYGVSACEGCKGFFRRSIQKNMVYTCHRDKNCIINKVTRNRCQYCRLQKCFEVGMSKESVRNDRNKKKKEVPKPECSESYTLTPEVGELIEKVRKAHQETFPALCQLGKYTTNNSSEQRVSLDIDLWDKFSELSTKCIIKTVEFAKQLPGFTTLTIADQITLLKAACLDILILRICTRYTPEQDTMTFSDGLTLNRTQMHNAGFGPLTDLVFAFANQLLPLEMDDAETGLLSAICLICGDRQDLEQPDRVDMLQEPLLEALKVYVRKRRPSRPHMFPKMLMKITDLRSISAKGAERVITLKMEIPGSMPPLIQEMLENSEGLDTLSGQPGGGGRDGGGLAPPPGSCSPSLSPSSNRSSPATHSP
METHOD_NOTES: cell_activity; RA 1 µM, CV-1
CONDITION_NOTES: tags: RSV or pRS expression vector; 5'-agct overhangs
RECORDED_METRIC: activity (fold induction)

[[record]]
binder = "MHC-R (dsDNA) DNA 1: AGCTGGAGGTGAACAGGAGGTCAGCAAGCT DNA 2: AGCTTGCTGACCTCCTGTTCACCTCCAGCT"
recorded_metric = "activity"
measured_value = 7.4

[[record]]
binder = "MHC+1 (dsDNA) DNA 1: AGCTGGAGGTGAACAGGAGGACAGCAAGCT DNA 2: AGCTTGCTGTCCTCCTGTTCACCTCCAGCT"
recorded_metric = "activity"
measured_value = 4

[[record]]
binder = "MHC-T (dsDNA) DNA 1: AGCTGGAGGTGACAGGAGGTCAGCAAGCT DNA 2: AGCTTGCTGACCTCCTGTCACCTCCAGCT"
recorded_metric = "activity"
measured_value = 2.6

[[record]]
binder = "TREp (dsDNA) DNA 1: AGCTTCAGGTCATGACCTGAGAGCT DNA 2: AGCTCTCAGGTCATGACCTGAAGCT"
recorded_metric = "activity"
measured_value = 9

